Origin of measurements: PubChem BioAssay AID1963825

Listing: viability, T/C of selected molecules
- test.protocol: Anticancer human tumor 997537-175-T-J1-PDC patient-derived colon adenocarcinoma cell line growth inhibition [POLQ]
- condition.parameters: 997537-175-T-J1-PDC complex spheroid viability, combination with POLQ inhibitors; second compound 10 µM; first compound 0.316 µM; active compounds read low
- Experimental: Multicellular complex tumor spheroid response to Polymerase (POL) inhibitors (novobiocin, ART-558, RP6685) in combination with a variety of drugs and investigational agents in selected tumor cell lines The POL inhibitors (novobiocin, ART-558, and RP6685) were evaluated both individually and in combination with standard of care and investigational anticancer small molecules within a complex spheroid model of solid tumors. . […]
Reply with just the number (in %).

For orientation, consider the following solved cases.
molecule	measurement.type	unit.abbrev	numeric.readout
C=CC(=O)N1CCN(c2nc(=O)n(-c3c(C)ccnc3C(C)C)c3nc(-c4c(O)cccc4F)c(F)cc23)C(C)C1 (stereo not drawn) + Cc1cccc(N(C)C(=O)C2C(O)CCN2c2nc(C)cc(C(F)(F)F)c2C#N)c1	viability, T/C	%	94.8
COc1cccc2c1C(=O)c1c(O)c3c(c(O)c1C2=O)CC(O)(C(=O)CO)CC3OC1CC(N)C(O)C(C)O1 (stereo not drawn) + Cc1cccc(N(C)C(=O)C2C(O)CCN2c2nc(C)cc(C(F)(F)F)c2C#N)c1	viability, T/C	%	90.7

// next item, viability, T/C requested
Looking up CNCc1ccc(-c2[nH]c3cc(F)cc4c3c2CCNC4=O)cc1 + Nc1ccc(C#CCN(C(=O)Cc2ncc(C(F)(F)F)cc2C(F)(F)F)c2ccc(F)cc2)nn1 , I see its viability, T/C listed as 101

###

- test.protocol: Anticancer human tumor 997537-175-T-J1-PDC cell line growth inhibition [POLQ];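 note: luminescence signal used as a surrogate for viable cells; spheroids exposed to drugs for seven days before readout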
- condition.parameters: 997537-175-T-J1-PDC complex spheroid viability, combination with POLQ inhibitors; second compound 10 µM; first compound 0.316 µM; active compounds read low
Below, each entry is listed with its recorded viability, T/C.
The answer is to be given in %; state only the numeric part.

Solved entries (count: 5):
compound	unit.abbrev	numeric.readout
O=C(c1cc(Cc2n[nH]c(=O)c3ccccc23)ccc1F)N1CCN(C(=O)C2CC2)CC1 + Cc1cccc(N(C)C(=O)C2C(O)CCN2c2nc(C)cc(C(F)(F)F)c2C#N)c1	%	91.1
CCc1c2c(nc3ccc(O)cc13)-c1cc3c(c(=O)n1C2)COC(=O)[C@]3(O)CC + Nc1ccc(C#CCN(C(=O)Cc2ncc(C(F)(F)F)cc2C(F)(F)F)c2ccc(F)cc2)nn1	%	9.23
Nc1ccn(C2OC(CO)C(O)C2(F)F)c(=O)n1 (stereo unspecified) + Nc1ccc(C#CCN(C(=O)Cc2ncc(C(F)(F)F)cc2C(F)(F)F)c2ccc(F)cc2)nn1	%	89
COc1cccc(OCCCN)c1-c1cc(Nc2cnc(C#N)cn2)n[nH]1 + Cc1cccc(N(C)C(=O)C2C(O)CCN2c2nc(C)cc(C(F)(F)F)c2C#N)c1	%	53.1
O=c1[nH]cc(F)c(=O)[nH]1 + COC1C(OC(N)=O)C(O)C(Oc2ccc3c(O)c(NC(=O)c4ccc(O)c(CC=C(C)C)c4)c(=O)oc3c2C)OC1(C)C	%	95.3

With those in mind, consider the next compound.
Record C#Cc1c(F)ccc2cc(O)cc(-c3ncc4c(N5CC6CCC(C5)N6)nc(OCC56CCCN5CC(F)C6)nc4c3F)c12 (stereo unspecified) + Cc1cccc(N(C)C(=O)C2C(O)CCN2c2nc(C)cc(C(F)(F)F)c2C#N)c1 . Reported viability, T/C: 101
